- Tgt: human D3 receptors (Homo sapiens, UniProt P35462)
- Sequence (P35462 whole entry): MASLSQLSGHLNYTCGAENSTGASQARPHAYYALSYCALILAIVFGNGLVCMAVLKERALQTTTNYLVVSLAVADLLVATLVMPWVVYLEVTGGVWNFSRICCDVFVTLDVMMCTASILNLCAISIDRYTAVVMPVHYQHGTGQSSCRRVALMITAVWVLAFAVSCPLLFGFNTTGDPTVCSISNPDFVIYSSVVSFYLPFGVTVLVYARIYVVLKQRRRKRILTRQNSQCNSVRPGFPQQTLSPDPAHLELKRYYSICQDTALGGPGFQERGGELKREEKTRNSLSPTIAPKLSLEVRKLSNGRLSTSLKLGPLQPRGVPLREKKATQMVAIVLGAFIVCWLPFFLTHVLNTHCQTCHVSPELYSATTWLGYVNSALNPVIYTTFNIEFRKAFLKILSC
- Protocol text: Radioligand binding assay with [125I]IABN, D3 receptor
- Parameters: expressed in transfected cells; host or cells: HEK293
- Study conditions: selectivity ratio of Ki D2 / Ki D3 (fold)
Outcome label depends on D2/D3 relative to 100: at/above gives Fulfilled, below gives Not fulfilled.

* CCN(CCCNC(=O)c1ccc(-c2cccs2)cc1)CCNC(=O)c1cc(Br)cc(OC)c1OC | Fulfilled
* C=CCN(CCCNC(=O)c1ccc(-c2cccs2)cc1)CCNC(=O)c1cc(Br)cc(OC)c1OC [20b] | Not fulfilled
* CCN(CCCCN(C)C)CCNC(=O)c1cc(Br)cc(OC)c1OC | Not fulfilled
* CCN(CCCCCSc1nnc(-c2ccccc2)n1C)CCNC(=O)c1cc(Br)cc(OC)c1OC [11b] | Not fulfilled
* CCN(CCCNC(=O)c1ccsc1)CCNC(=O)c1cc(Br)cc(OC)c1OC [21i] | Not fulfilled
* CCN(CCCNC(=O)c1ccc(-c2ccsc2)cc1)CCNC(=O)c1cc(Br)cc(OC)c1OC [21g] | Fulfilled

* * *

pKi: −log10 of the molar value.
// each record: one item and its pKi for Dopamine active transporter (DAT) (Homo sapiens)
Experimental endpoint: pKi

• CCCN(CCCNC(=O)c1ccc(-c2cccs2)cc1)CCNC(=O)c1cc(Br)cc(OC)c1OC [20a] = 6.29
• CCN(CCCNC(=O)c1cc2ccccc2n1C)CCNC(=O)c1cc(Br)cc(OC)c1OC [21j] = 6.41
• CCN(CCCNC(=O)c1cc2ccccc2[nH]1)CCNC(=O)c1cc(Br)cc(OC)c1OC [21d] = 7.05
